Biological target: NAD(+) hydrolase SARM1 (Homo sapiens) (UniProt Q6SZW1)
Sequence (whole entry): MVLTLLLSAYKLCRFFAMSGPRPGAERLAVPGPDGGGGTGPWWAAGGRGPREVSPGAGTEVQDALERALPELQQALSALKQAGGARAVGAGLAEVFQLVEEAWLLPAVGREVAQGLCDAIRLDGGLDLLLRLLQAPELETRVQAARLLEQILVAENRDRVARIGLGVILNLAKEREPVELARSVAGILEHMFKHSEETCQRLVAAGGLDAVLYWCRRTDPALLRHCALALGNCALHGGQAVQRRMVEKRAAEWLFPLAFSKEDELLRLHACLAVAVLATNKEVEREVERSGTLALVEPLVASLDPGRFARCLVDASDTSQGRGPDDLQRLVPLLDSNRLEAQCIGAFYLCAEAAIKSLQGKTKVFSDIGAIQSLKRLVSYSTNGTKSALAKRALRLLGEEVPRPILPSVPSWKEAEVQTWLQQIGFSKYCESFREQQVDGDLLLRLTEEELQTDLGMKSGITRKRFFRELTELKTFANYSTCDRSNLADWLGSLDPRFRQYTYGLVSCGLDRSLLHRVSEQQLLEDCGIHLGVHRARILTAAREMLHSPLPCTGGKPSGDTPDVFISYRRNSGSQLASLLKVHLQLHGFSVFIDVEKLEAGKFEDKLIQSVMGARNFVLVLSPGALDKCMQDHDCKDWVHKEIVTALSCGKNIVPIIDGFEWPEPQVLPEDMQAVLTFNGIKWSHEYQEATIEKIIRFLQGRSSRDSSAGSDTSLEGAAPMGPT
Experiment: Inhibition of StrepTag-tagged human SARM1 TIR (561 to 724 residues) expressed in NRK1-HEK293T cells assessed as reduction in NADase activity by measuring ADPR production at 150 uM pre-incubated up to 120 mins before NAD+ addition and further incubated for 60 mins by HPLC analysis
Format: cell-based
Parameters: scale not given: the % may be the effect or the level left

[
  {
    "molecule": "COc1cnc2[nH]c([S+]([O-])Cc3ncc(C)c(OC)c3C)nc2c1 (stereo unspecified)",
    "study.target": "NAD(+) hydrolase SARM1 (Homo sapiens) (UniProt Q6SZW1)",
    "Activity": "50 to 75%"
  },
  {
    "molecule": "COc1ccc2[nH]c([S+]([O-])Cc3ncc(C)c(OC)c3C)nc2n1 (stereo unspecified)",
    "study.target": "NAD(+) hydrolase SARM1 (Homo sapiens) (UniProt Q6SZW1)",
    "Activity": "< 50%"
  },
  {
    "molecule": "Cc1c(OCC(F)(F)F)ccnc1CSc1nc2ccccc2[nH]1",
    "study.target": "NAD(+) hydrolase SARM1 (Homo sapiens) (UniProt Q6SZW1)",
    "Activity": "> 75%"
  },
  {
    "molecule": "COc1ccc2c(c1)nc([S+]([O-])Cc1ncc(C)c(OC)c1C)n2C (stereo unspecified)",
    "study.target": "NAD(+) hydrolase SARM1 (Homo sapiens) (UniProt Q6SZW1)",
    "Activity": "> 75%"
  },
  {
    "molecule": "Cc1cnc(C[S@@+]([O-])c2nc3ccccc3[nH]2)c(C)c1OCC(F)(F)F",
    "study.target": "NAD(+) hydrolase SARM1 (Homo sapiens) (UniProt Q6SZW1)",
    "Activity": "< 50%"
  },
  {
    "molecule": "Cc1c(OCC(F)(F)F)ccnc1CS(=O)(=O)c1nc2ccccc2[nH]1",
    "study.target": "NAD(+) hydrolase SARM1 (Homo sapiens) (UniProt Q6SZW1)",
    "Activity": "> 75%"
  }
]

* * *

target: NAD(+) hydrolase SARM1 (Homo sapiens) (UniProt Q6SZW1); assay: Inhibition of StrepTag-tagged human SARM1 TIR (561 to 724 residues) expressed in NRK1-HEK293T cells assessed as reduction in NADase activity by measuring NAD consumption at 150 uM pre-incubated up to 120 mins before NAD+ addition and further incubated for 60 mins by HPLC analysis relative to control; format: cell-based; set-up: scale not given: the % may be the effect or the level left
This section presents molecules with their documented Activity values.

[
  {
    "molecule": "Cc1c(OCC(F)(F)F)ccnc1CS(=O)(=O)c1nc2ccccc2[nH]1",
    "study.target": "NAD(+) hydrolase SARM1 (Homo sapiens) (UniProt Q6SZW1)",
    "Activity": "> 75%"
  },
  {
    "molecule": "COc1cnc2[nH]c([S+]([O-])Cc3ncc(C)c(OC)c3C)nc2c1 (stereo unspecified)",
    "study.target": "NAD(+) hydrolase SARM1 (Homo sapiens) (UniProt Q6SZW1)",
    "Activity": "> 75%"
  },
  {
    "molecule": "Cc1c(OCC(F)(F)F)ccnc1CSc1nc2ccccc2[nH]1",
    "study.target": "NAD(+) hydrolase SARM1 (Homo sapiens) (UniProt Q6SZW1)",
    "Activity": "> 75%"
  },
  {
    "molecule": "COc1ccc2c(c1)nc([S+]([O-])Cc1ncc(C)c(OC)c1C)n2C (stereo unspecified)",
    "study.target": "NAD(+) hydrolase SARM1 (Homo sapiens) (UniProt Q6SZW1)",
    "Activity": "> 75%"
  },
  {
    "molecule": "Cc1cnc(C[S@@+]([O-])c2nc3ccccc3[nH]2)c(C)c1OCC(F)(F)F",
    "study.target": "NAD(+) hydrolase SARM1 (Homo sapiens) (UniProt Q6SZW1)",
    "Activity": "> 75%"
  },
  {
    "molecule": "COc1ccc2[nH]c([S+]([O-])Cc3ncc(C)c(OC)c3C)nc2n1 (stereo unspecified)",
    "study.target": "NAD(+) hydrolase SARM1 (Homo sapiens) (UniProt Q6SZW1)",
    "Activity": "50 to 75%"
  }
]

* * *

molecular target: NAD(+) hydrolase SARM1 (Homo sapiens) (UniProt Q6SZW1); assay: Substrate activity at StrepTag-tagged human SARM1 TIR (561 to 724 residues) expressed in HEK293T cells assessed as increase in NADase activity in presence of NAD+ incubated for 60 mins by HPLC analysis; type: cell-based
Activity calls are given as the source filed them. The rule behind the calls is not given here.
Outcome codes: active, inactive

[
  {
    "input.smiles": "NC(=O)C1=CN([C@@H]2O[C@H](COP(=O)(O)OP(=O)(O)OC[C@H]3O[C@@H](n4cnc5c(=O)[nH]cnc54)[C@H](O)[C@@H]3O)[C@@H](O)[C@H]2O)CC=C1",
    "study.target": "NAD(+) hydrolase SARM1 (Homo sapiens) (UniProt Q6SZW1)",
    "category.label": "active"
  },
  {
    "input.smiles": "NC(=O)C1=CN([C@@H]2O[C@H](COP(=O)(O)OP(=O)(O)OC[C@H]3O[C@@H](n4cnc5c4ncn4ccnc54)[C@H](O)[C@@H]3O)[C@@H](O)[C@H]2O)CC=C1",
    "study.target": "NAD(+) hydrolase SARM1 (Homo sapiens) (UniProt Q6SZW1)",
    "category.label": "inactive"
  },
  {
    "input.smiles": "NC(=O)c1ccccc1",
    "study.target": "NAD(+) hydrolase SARM1 (Homo sapiens) (UniProt Q6SZW1)",
    "category.label": "inactive"
  },
  {
    "input.smiles": "NC(=O)c1ccc(N)nc1",
    "study.target": "NAD(+) hydrolase SARM1 (Homo sapiens) (UniProt Q6SZW1)",
    "category.label": "inactive"
  }
]

* * *

target: NAD(+) hydrolase SARM1 (Homo sapiens); assay: Substrate activity at StrepTag-tagged human SARM1 TIR (561 to 724 residues) expressed in HEK293T cells assessed as increase in NADase activity in presence of NAD+ incubated for 60 mins by HPLC analysis; type: cell-based
Activity calls are given as the source filed them. No cut-off for these calls is given here.
Outcome codes: active, inactive

[
  {
    "molecule": "NC(=S)c1cccnc1",
    "category.label": "inactive"
  },
  {
    "molecule": "CC(=O)c1cccnc1",
    "category.label": "inactive"
  },
  {
    "molecule": "NC(=O)C1CCCc2c1[nH]c1ccc(Cl)cc21 (stereo not given)",
    "category.label": "inactive"
  },
  {
    "molecule": "NC(=O)C1=CN([C@@H]2O[C@H](COP(=O)(O)OP(=O)(O)OC[C@H]3O[C@@H](n4cnc5c(N)ncnc54)[C@H](OP(=O)(O)O)[C@@H]3O)[C@@H](O)[C@H]2O)C=CC1",
    "category.label": "active"
  },
  {
    "molecule": "O=Cc1cccnc1",
    "category.label": "inactive"
  }
]

Data origin, for the record: ChEMBL document CHEMBL4421736
